- Tested on: NMDA-treated primary hippocampal neurons
- Assay Explanation: NMDA-triggered LDH release in primary hippocampal neuron culture
- Measurement Parameters: 10 μM, 16 h pretreatment; NMDA 100 μM, 2.5 h; compared with NMDA alone
Observed Property: effect on NMDA-triggered LDH release (in words)

[[record]]
compound = "Fc1ccc(Nc2nc(-c3ccccc3)cs2)cc1 [Compound 2]"
result = "greatest decrease"

[[record]]
compound = "Brc1ccc(Nc2nc(-c3cccnc3)cs2)cc1 [Compound 4]"
result = "greatest decrease"

[[record]]
compound = "Fc1ccc(Nc2nc(-c3ccccc3)cs2)c(F)c1 [Compound 5]"
result = "greatest decrease"


* * *

- Assay Explanation: Pharmacokinetic study, brain and plasma levels in mice
- Type: in vivo, mouse
- Measurement Parameters: mouse, brain, po, 10 mg/kg, oral 10 mg/kg, at 1 h, read-out: Cmax for brain
Observed Property: Cmax

[[record]]
compound = "Fc1ccc(Nc2nc(-c3ccccc3)cs2)cc1 [Compound 2]"
result = "~18 ng/g"

